- MEASUREMENT_DESCRIPTION: Clearance in Beagle dog at 0.5 mg/kg, iv and measured upto 24 hrs by LC-MS/MS analysis
- Assay type: ADME, organism-based, Canis lupus familiaris
- TEST_PARAMETERS: in vivo
OUTCOME_MEASURE: clearance (mL/min/kg)

molecule="C[C@@H]1Cc2c(ccc3[nH]ncc23)[C@@H](c2c(F)cc(N3CCC4(CCN(C(=O)CN5Cc6cc7c(cc6C5)C(=O)N(C5CCC(=O)NC5=O)C7=O)CC4)CC3)cc2F)N1CC(F)F (stereo partly specified)" scale_unit=mL/min/kg observed_result=11

----------
- MEASURED_TARGET: Voltage-gated inwardly rectifying potassium channel KCNH2 (Homo sapiens)
- Sequence (Q12809 whole entry): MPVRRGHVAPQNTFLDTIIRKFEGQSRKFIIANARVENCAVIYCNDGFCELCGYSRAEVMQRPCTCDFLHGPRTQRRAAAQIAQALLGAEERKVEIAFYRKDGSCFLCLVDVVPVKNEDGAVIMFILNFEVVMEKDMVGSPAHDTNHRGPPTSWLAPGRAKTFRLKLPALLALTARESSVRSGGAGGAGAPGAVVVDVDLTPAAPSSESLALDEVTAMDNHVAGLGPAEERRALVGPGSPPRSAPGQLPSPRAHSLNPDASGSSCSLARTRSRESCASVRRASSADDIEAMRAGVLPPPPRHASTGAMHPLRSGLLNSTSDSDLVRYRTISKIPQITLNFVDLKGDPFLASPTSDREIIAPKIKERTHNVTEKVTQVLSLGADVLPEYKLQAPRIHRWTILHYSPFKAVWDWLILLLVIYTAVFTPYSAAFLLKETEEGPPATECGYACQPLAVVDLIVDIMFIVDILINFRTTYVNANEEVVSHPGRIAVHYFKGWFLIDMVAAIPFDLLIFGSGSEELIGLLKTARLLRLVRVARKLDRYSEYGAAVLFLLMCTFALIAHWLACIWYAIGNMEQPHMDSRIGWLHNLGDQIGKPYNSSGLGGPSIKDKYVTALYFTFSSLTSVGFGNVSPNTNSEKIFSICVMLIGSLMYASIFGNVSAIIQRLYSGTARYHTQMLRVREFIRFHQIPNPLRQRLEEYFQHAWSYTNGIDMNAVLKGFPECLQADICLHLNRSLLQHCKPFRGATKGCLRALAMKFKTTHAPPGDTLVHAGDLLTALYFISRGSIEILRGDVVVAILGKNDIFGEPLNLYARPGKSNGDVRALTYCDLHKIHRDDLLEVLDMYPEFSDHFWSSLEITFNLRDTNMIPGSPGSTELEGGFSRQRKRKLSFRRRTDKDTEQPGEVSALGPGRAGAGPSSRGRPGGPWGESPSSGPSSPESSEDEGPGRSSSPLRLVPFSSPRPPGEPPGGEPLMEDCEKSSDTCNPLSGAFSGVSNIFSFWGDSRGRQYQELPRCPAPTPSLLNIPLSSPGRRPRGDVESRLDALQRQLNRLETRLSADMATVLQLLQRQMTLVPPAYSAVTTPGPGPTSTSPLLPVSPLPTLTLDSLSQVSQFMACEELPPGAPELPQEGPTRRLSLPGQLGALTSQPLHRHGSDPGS
- MEASUREMENT_DESCRIPTION: Inhibition of human ERG in human HEK293 cells incubated for 5 mins by patch clamp assay
OUTCOME_MEASURE: IC50

molecule="C[C@@H]1Cc2c(ccc3[nH]ncc23)[C@@H](c2c(F)cc(N3CCC4(CCN(C(=O)CN5Cc6cc7c(cc6C5)C(=O)N(C5CCC(=O)NC5=O)C7=O)CC4)CC3)cc2F)N1CC(F)F (stereo partly specified)" measured_target="Voltage-gated inwardly rectifying potassium channel KCNH2 (Homo sapiens)" observed_result="> 30 µM"

Origin of the recorded values: ChEMBL document CHEMBL5321293
